Assay: Solubility measurement, Japanese Pharmacopoeia Dissolution test
Format: physicochemical
Details: Japanese Pharmacopoeia 2nd fluid for dissolution test, crystals
Where a name gives a salt, the structure may show the parent alone.
value type: solubility, 2nd fluid for dissolution test (µg/mL)

>  <compound>
Cc1cc(Nc2nc(CC3(C(=O)O)CCN(C(=O)c4cccc(Cl)c4Cl)CC3)ccc2F)n[nH]1 [Potassium salt]

>  <measurement units>
µg/mL

>  <reported>
730

$$$$

(I) Cc1cc(Nc2nc(CC3(C(=O)O)CCN(C(=O)c4cccc(Cl)c4Cl)CC3)ccc2F)n[nH]1 [Free form]
(II) Cc1cc(Nc2nc(CC3(C(=O)O)CCN(C(=O)c4cccc(Cl)c4Cl)CC3)ccc2F)n[nH]1 [Mesylate salt]
Query string: Which gives the smaller solubility, 2nd fluid for dissolution test number: I or II ? Reply with the label of the item you choose.
Result string: I

src = patent US11028069B2
